# System: MS2 coat protein
# Experiment summary: apparent KD of MS2 coat protein; designed switch direction (-1 OFF switch, 1 ON switch): -1; higher = weaker reporter binding
# Condition summary: input ligand: microRNA oligo, concentration not stated
Note to self: values exactly at 20 nM are MET. So apparent KD of MS2 coat protein at or above 20 nM is MET, below is NOT MET.

Reference set, count: 3
[[record]]
seq_text = "GCGCCAUCGUGAGAUGGCGUUCCGACAUGAGGAUCACCCAUGUAGGAUAUCGAUUGCUUUGCAGUCGAGAAGGGCGUGAUAAGU [JL ENG3 3.73] (Eterna round: R96, puzzle: Exclusion NG 3)"
class_label = "NOT MET"

[[record]]
seq_text = "ACAUGAGGAUCACCCAUGUAAUCAUGAUGGCUGAUGUAGAGCUAGGAUAUGAGUGGCUUUCUAUCUCAGAAGGAGCUAGACUGG [Deportation 41 - Jieux - Exclusion NG 3] (Eterna round: R96, puzzle: Exclusion NG 3)"
class_label = "NOT MET"

[[record]]
seq_text = "GCACGGAGUGUAGGAUAUCUGUGCGAUUAGCUCAGAGAAGGACACAUGAGGAUCACCCAUGUGUACCUCAACAUUAAUCCGUGC [Eli exng1 - 075] (Eterna round: R96, puzzle: Exclusion NG 1)"
class_label = "NOT MET"


In: # check: apparent KD of MS2 coat protein of CUCGUGCAGCAAAGCUGUACGAGUACAUGAGGAUCACCCAUGUAGGAUAUGGUACGCUUUGCGUGCUAGAAGGAUAUGUGUAGG [Mat - Exclusion NG 3 - Mod of JL - D86] (Eterna round: R96, puzzle: Exclusion NG 3) is greater than or equal to 20 nM
Out: MET

In: # check: apparent KD of MS2 coat protein of CAGAAUUGAGGAUAUGAUCAAUUUAACAUGAGGAUCACCCAUGUAUGGGAAUGAUUCUGAUCAGAAGGCGAUUCUU [Exclusion 5: 1:a] (Eterna round: R96, puzzle: Exclusion 5) is greater than or equal to 20 nM
Out: MET
